# subjectOfTest: RXRβ (Homo sapiens)
# Sequence (P28702 whole entry): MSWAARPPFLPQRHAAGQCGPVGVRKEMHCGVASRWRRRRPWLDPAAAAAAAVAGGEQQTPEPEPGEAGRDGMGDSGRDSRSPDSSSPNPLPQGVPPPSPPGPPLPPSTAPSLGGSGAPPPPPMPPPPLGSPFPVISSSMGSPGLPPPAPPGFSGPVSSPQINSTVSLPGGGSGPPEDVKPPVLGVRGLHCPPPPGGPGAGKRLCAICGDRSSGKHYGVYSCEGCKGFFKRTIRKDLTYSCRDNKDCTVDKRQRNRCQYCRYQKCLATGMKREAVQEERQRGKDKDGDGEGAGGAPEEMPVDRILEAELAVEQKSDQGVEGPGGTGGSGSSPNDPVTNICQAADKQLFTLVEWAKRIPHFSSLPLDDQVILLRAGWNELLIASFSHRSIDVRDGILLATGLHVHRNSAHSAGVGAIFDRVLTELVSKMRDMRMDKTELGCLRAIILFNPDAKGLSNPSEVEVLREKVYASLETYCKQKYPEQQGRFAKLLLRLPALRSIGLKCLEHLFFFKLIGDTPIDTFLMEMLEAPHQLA
# assayRemarks: RXR reporter gene assay (luciferase) in COS-1 cells, RXRβ
# runParameters: COS-1 cells; half of maximum transcriptional activation potential
pEC50: −log10 of the molar value.
measuredEndpoint: pEC50

A: CCN(c1ccc(C(C)C)c(OC(C)C)c1)c1ccc(C(=O)O)cn1 [Compound 1a]
B: CCN(c1ccc(C(C)C)c(OC(C)C)c1)c1ncc(C(=O)O)cn1 [Compound 6a]
C: CCN(c1ccc(C(C)C)c(OCC(C)C)c1)c1ncc(C(=O)O)cn1 [Compound 7a]
Reorder the items by pEC50, least to greatest. A complete answer lists every label in the requested sequence.
A, B, C
(A: 7.46, B: 7.74, C: 8.14)

----------
# Test system: Human leukemia cell strain HL-60
# assayRemarks: HL-60 differentiation induction (NBT reduction method)
# Type: cell-based
# runParameters: Homo sapiens, HL-60, 96 h; test compound alone; concentration giving half of maximum differentiation inducing rate; four days culture; read-out: Retinoid activity EC50
pEC50: −log10 of the molar value.
Known pEC50 of a selection of compounds

Provide the documented pEC50 with Human leukemia cell strain HL-60 as the system for CCN(c1ccc(C(C)C)c(OC(C)C)c1)c1ncc(C(=O)O)cn1
< 5.00

Let's switch to this compound now.
Provide the documented pEC50 with Human leukemia cell strain HL-60 as the system for CCN(c1ccc(C(C)C)c(OC(C)C)c1)c1ccc(C(=O)O)cn1
< 5.00

----------
Known EC50 of a selection of compounds
# Test system: Human leukemia cell strain HL-60
# assayRemarks: HL-60 differentiation induction (NBT reduction method)
# Assay type: cell-based
# runParameters: test compound alone; concentration giving half of maximum differentiation inducing rate; four days culture; read-out: Retinoid activity EC50

Some compounds with known EC50 results, for comparison:
// query EC50 value for entry CC(C)Oc1cc(N(c2ccc(C(=O)O)cn2)S(C)(=O)=O)ccc1C(C)C [Compound 1b]
> 10 µM

// query EC50 value for entry CCN(c1ccc(OC(C)C)c(C(C)C)c1)c1ccc(C(=O)O)cn1 [Compound 4a]
> 10 µM

Let's switch to this compound now.
// query EC50 value for entry CCCOc1cc(N(c2ccc(C(=O)O)cn2)S(C)(=O)=O)ccc1C(C)C [Compound 2b]
> 10 µM

----------
Known EC50 of a selection of compounds
# subjectOfTest: RXRγ (Homo sapiens, UniProt P48443)
# Sequence (P48443 whole entry): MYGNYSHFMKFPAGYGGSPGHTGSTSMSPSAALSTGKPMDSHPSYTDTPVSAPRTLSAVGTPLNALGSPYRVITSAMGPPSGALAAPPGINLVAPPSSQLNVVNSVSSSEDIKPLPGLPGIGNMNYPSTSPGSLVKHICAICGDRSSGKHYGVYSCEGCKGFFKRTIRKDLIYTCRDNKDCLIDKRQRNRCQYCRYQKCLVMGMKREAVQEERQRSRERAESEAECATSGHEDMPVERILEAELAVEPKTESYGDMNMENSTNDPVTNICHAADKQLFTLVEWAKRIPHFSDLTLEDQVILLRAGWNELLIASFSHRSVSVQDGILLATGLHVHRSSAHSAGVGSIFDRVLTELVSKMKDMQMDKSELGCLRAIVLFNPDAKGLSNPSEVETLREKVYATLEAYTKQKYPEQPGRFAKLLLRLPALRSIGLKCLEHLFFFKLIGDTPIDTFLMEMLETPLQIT
# assayRemarks: RXR reporter gene assay (luciferase) in COS-1 cells, RXRγ
# runParameters: COS-1 cells; half of maximum transcriptional activation potential

// query EC50 value for entry CCN(c1ccc(C(C)C)c(OCC(C)C)c1)c1ncc(C(=O)O)cn1
4.9 nM

// query EC50 value for entry CCN(c1ccc(C(C)C)c(OC(C)C)c1)c1ccc(C(=O)O)cn1
> 380 nM

// query EC50 value for entry CCN(c1ccc(OC(C)C)c(C(C)C)c1)c1ccc(C(=O)O)cn1
> 350 nM

// query EC50 value for entry CCN(c1ccc(C(C)C)c(OC(C)C)c1)c1ncc(C(=O)O)cn1
> 58 nM

----------
# subjectOfTest: RXRα (Homo sapiens)
# Sequence (P19793 1-462): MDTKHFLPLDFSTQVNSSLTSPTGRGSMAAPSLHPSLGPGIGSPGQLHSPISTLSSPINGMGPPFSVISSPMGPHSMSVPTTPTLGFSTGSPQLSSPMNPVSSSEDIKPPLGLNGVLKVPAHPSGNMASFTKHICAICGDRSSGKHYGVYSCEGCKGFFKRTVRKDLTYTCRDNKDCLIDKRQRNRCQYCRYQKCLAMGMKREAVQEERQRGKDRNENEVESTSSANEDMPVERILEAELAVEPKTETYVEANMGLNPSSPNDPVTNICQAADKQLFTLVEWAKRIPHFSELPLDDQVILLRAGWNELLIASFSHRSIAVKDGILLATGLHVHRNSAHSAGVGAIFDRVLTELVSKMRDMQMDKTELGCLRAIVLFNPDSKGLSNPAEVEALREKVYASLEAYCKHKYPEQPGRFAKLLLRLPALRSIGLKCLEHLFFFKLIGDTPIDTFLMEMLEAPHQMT
# assayRemarks: RXR reporter gene assay (luciferase) in COS-1 cells, RXRα
# runParameters: COS-1 cells; half of maximum transcriptional activation potential
measuredEndpoint: EC50 (nM)

I: CCN(c1ccc(C(C)C)c(OCC(C)C)c1)c1ncc(C(=O)O)cn1
II: CCN(c1ccc(C(C)C)c(OC(C)C)c1)c1ncc(C(=O)O)cn1
III: CCN(c1ccc(C(C)C)c(OC(C)C)c1)c1ccc(C(=O)O)cn1
hey, can you rank those compounds up there by EC50? biggest number first please A complete answer lists every label in the requested sequence.
III, II, I
(III: 27 nM, II: 6 nM, I: 2.9 nM)
